These measurements were taken from ChEMBL document CHEMBL1149102.

EC50 for assorted molecules
Biological target: Melanocortin receptor 3 (Rattus norvegicus, UniProt P32244)
Sequence (P32244 whole entry): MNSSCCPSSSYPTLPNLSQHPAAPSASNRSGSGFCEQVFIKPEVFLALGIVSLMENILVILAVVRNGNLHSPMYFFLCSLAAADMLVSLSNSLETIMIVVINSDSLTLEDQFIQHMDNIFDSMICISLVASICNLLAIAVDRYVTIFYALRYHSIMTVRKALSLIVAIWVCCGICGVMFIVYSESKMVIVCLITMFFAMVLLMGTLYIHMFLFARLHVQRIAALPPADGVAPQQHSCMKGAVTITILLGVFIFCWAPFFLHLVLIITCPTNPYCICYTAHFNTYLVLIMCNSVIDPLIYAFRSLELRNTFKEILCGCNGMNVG
Assay: Maximal agonist response at rat melanocortin 3 receptor (MC3R)
Assay type: functional
Measurement Type: EC50 (nM)

* C[C@@H](O)[C@H](NC(=O)[C@H]1CCCCNC(=O)C[C@H](NC(=O)[C@@H](N)Cc2ccccc2)C(=O)N[C@@H](Cc2cnc[nH]2)C(=O)N[C@H](Cc2ccccc2)C(=O)N[C@@H](CCCNC(=N)N)C(=O)N[C@H](Cc2c[nH]c3ccccc23)C(=O)N1)C(N)=O | 0.23
* C[C@@H](O)[C@H](NC(=O)[C@H]1CCSSC[C@H](NC(=O)[C@@H](N)Cc2ccccc2)C(=O)N[C@@H](Cc2cnc[nH]2)C(=O)N[C@H](Cc2ccccc2)C(=O)N[C@@H](CCCNC(=N)N)C(=O)N[C@H](Cc2c[nH]c3ccccc23)C(=O)N1)C(N)=O | 75
* C[C@@H](O)[C@H](NC(=O)[C@H]1CSSC[C@H](NC(=O)[C@H](N)Cc2ccccc2)C(=O)N[C@H](Cc2cnc[nH]2)C(=O)N[C@H](Cc2ccccc2)C(=O)N[C@@H](CCCNC(=N)N)C(=O)N[C@H](Cc2c[nH]c3ccccc23)C(=O)N1)C(N)=O | 0.23
* C[C@H](O)[C@@H](NC(=O)[C@H]1CSSC[C@H](NC(=O)[C@H](N)Cc2ccccc2)C(=O)N[C@@H](Cc2cnc[nH]2)C(=O)N[C@@H](Cc2ccc(Cl)cc2)C(=O)N[C@@H](CCCNC(=N)N)C(=O)N[C@H](Cc2c[nH]c3ccccc23)C(=O)N1)C(N)=O | 7.3
* C[C@@H](O)[C@H](NC(=O)[C@H]1CSSC[C@H](NC(=O)[C@H](N)Cc2ccccc2)C(=O)N[C@@H](Cc2c[nH]cn2)C(=O)N[C@@H](Cc2ccccc2)C(=O)N[C@@H](CCCN=C(N)N)C(=O)N[C@H](Cc2c[nH]c3ccccc23)C(=O)N1)C(N)=O | 3
* C[C@@H](O)[C@H](NC(=O)[C@@H]1NC(=O)[C@@H](Cc2c[nH]c3ccccc23)NC(=O)[C@H](CCCNC(=N)N)NC(=O)[C@@H](Cc2ccccc2)NC(=O)[C@@H](Cc2cnc[nH]2)NC(=O)[C@@H](NC(=O)[C@H](N)Cc2ccccc2)CSSC1(C)C)C(N)=O | 64
* C[C@@H](O)[C@H](NC(=O)[C@H]1CSSC(C)(C)[C@H](NC(=O)[C@H](N)Cc2ccccc2)C(=O)N[C@@H](Cc2c[nH]cn2)C(=O)N[C@@H](Cc2ccccc2)C(=O)N[C@@H](CCCN)C(=O)N[C@H](Cc2c[nH]c3ccccc23)C(=O)N1)C(N)=O | 59

###

pEC50 for assorted compounds
Biological target: UniProt:P41149
Sequence (P41149 whole entry): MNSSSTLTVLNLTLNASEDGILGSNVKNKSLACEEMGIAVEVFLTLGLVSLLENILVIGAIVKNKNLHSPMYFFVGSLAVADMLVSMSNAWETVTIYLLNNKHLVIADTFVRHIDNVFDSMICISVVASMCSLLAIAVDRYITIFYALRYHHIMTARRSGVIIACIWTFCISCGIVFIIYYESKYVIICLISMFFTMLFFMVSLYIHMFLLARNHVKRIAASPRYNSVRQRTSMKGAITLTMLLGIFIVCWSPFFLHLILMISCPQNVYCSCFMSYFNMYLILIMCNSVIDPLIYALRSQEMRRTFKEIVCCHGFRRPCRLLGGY
Assay: Maximum agonist response for mouse melanocortin 5 receptor (MC5R)
Assay type: functional
pEC50: −log10 of the molar value.
Measurement Type: pEC50

- C[C@@H](O)[C@H](NC(=O)[C@@H]1CCCCNC(=O)C[C@H](NC(=O)[C@H](N)Cc2ccccc2)C(=O)N[C@@H](Cc2cnc[nH]2)C(=O)N[C@H](Cc2ccccc2)C(=O)N[C@@H](CCCNC(=N)N)C(=O)N[C@@H](Cc2c[nH]c3ccccc23)C(=O)N1)C(N)=O: 10.13
- C[C@@H](O)[C@H](NC(=O)[C@@H]1CCSSC[C@H](NC(=O)[C@H](N)Cc2ccccc2)C(=O)N[C@@H](Cc2cnc[nH]2)C(=O)N[C@H](Cc2ccccc2)C(=O)N[C@@H](CCCNC(=N)N)C(=O)N[C@@H](Cc2c[nH]c3ccccc23)C(=O)N1)C(N)=O: 8.66
- C[C@@H](O)[C@H](NC(=O)[C@H]1NC(=O)[C@H](Cc2c[nH]c3ccccc23)NC(=O)[C@H](CCCNC(=N)N)NC(=O)[C@@H](Cc2ccccc2)NC(=O)[C@H](Cc2cnc[nH]2)NC(=O)[C@@H](NC(=O)[C@H](N)Cc2ccccc2)CSSC1(C)C)C(N)=O: 9.85
- C[C@H](O)[C@@H](NC(=O)[C@H]1CSSC[C@H](NC(=O)[C@H](N)Cc2ccccc2)C(=O)N[C@@H](Cc2cnc[nH]2)C(=O)N[C@@H](Cc2ccc(Cl)cc2)C(=O)N[C@@H](CCCNC(=N)N)C(=O)N[C@H](Cc2c[nH]c3ccccc23)C(=O)N1)C(N)=O: 9.96
